target: N-type Ca2+ channels in IMR-32 cells (Homo sapiens, UniProt Q00975); construct: host or cells: IMR-32 cells, differentiated with dibutyryl cAMP and bromodeoxyuridine; assay: Inhibition of N-type calcium flux in IMR-32 cells (Indo-1 fluorescence, nitrendipine present); assay type: cell-based; conditions: IMR-32
Sequence (Q00975 whole entry): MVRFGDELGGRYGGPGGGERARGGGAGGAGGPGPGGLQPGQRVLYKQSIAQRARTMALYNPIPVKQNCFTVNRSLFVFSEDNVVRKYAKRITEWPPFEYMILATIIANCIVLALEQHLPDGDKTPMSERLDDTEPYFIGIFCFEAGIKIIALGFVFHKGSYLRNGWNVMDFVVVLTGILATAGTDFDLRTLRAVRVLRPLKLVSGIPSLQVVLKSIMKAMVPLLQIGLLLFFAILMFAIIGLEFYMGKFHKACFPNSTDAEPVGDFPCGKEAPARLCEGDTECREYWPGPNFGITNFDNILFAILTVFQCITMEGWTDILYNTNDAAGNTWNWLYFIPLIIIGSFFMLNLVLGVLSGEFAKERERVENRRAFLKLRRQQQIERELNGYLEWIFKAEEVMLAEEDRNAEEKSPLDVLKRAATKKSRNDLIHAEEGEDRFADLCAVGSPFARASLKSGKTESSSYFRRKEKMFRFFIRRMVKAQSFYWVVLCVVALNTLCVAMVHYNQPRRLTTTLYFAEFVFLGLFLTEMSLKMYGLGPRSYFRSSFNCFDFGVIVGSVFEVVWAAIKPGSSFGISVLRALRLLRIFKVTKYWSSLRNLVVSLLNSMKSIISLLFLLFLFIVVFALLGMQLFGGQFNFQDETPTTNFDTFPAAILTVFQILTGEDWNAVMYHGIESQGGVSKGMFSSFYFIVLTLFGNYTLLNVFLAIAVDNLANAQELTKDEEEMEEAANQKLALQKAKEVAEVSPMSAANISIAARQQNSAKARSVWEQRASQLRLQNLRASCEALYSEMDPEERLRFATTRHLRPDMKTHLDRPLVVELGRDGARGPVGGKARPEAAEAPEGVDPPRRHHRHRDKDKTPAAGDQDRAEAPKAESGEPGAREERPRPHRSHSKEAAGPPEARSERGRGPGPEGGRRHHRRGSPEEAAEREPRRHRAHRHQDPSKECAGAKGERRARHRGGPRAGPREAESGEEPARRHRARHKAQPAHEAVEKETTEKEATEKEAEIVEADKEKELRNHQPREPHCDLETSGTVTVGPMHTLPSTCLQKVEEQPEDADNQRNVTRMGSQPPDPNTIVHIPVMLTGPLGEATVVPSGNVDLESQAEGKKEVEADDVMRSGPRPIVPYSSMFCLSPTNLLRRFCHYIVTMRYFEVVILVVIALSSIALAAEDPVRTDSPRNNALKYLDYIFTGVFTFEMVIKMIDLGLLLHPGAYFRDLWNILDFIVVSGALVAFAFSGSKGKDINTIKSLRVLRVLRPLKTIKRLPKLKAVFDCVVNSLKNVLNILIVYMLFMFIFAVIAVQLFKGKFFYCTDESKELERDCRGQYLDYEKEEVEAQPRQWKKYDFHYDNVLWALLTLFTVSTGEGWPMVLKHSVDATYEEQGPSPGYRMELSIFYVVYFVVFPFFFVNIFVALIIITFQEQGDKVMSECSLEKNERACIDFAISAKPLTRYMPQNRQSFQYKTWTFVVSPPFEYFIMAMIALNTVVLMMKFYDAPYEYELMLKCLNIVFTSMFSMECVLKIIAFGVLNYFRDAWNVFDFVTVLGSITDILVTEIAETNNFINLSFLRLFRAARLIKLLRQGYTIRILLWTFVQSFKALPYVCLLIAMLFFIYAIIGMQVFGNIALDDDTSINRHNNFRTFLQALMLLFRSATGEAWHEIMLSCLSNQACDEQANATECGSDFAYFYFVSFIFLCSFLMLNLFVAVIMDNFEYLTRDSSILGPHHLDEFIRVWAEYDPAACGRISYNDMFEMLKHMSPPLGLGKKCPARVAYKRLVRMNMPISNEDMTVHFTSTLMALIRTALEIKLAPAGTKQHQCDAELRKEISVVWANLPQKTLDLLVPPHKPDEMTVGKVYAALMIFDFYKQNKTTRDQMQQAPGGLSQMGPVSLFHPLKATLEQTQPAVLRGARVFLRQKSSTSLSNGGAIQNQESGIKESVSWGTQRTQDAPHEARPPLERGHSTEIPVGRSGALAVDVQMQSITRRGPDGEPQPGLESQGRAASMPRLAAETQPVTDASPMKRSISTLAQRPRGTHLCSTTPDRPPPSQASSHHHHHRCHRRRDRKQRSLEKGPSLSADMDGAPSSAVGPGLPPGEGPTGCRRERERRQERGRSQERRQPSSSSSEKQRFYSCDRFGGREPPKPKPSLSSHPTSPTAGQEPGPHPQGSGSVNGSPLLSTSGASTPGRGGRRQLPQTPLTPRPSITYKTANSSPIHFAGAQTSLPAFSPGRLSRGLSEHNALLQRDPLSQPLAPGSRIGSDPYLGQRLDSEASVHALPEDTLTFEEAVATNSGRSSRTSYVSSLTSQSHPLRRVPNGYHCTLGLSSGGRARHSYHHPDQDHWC
Sequence (P54289 25-956 partner limits assumed): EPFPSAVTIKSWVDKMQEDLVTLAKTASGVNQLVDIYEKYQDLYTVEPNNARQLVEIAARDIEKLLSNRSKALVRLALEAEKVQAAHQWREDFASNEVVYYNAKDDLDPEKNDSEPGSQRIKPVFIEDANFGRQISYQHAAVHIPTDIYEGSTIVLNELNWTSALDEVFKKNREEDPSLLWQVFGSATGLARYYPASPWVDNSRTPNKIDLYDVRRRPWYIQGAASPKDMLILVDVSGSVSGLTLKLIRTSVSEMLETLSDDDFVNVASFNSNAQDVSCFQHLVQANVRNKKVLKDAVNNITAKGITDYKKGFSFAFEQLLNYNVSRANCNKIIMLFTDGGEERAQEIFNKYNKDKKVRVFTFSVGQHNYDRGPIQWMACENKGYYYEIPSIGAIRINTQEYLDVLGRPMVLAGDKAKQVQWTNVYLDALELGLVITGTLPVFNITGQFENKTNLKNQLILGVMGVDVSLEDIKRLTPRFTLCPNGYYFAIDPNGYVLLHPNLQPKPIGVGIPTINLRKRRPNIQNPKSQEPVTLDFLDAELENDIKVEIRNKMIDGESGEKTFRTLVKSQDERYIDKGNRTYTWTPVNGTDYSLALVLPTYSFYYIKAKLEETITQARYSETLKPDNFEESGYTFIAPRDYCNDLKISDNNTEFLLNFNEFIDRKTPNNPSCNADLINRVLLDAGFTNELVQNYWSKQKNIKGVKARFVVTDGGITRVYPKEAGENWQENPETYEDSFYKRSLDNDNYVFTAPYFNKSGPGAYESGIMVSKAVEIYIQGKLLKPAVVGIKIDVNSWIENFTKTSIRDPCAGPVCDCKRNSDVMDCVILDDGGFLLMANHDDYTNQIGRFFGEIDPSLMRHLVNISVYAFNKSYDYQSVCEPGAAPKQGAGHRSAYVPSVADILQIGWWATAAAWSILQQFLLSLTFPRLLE
Sequence (P54289 957-1103 partner limits assumed): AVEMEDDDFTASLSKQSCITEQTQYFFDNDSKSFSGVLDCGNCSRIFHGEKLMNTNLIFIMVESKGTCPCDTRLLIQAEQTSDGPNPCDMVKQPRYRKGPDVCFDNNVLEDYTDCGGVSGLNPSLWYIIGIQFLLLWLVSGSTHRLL
Sequence (P54284 whole entry partner): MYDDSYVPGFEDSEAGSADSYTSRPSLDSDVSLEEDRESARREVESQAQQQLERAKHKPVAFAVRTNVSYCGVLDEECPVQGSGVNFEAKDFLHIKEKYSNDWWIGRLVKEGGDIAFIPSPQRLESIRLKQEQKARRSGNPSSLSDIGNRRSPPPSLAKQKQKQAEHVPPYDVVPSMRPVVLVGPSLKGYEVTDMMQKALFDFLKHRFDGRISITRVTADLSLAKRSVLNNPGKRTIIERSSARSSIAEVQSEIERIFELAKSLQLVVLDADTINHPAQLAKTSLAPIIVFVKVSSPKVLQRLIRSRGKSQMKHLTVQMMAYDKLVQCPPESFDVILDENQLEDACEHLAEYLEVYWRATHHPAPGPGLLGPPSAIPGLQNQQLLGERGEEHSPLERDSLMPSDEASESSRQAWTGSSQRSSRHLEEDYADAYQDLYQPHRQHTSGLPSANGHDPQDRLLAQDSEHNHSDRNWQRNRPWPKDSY
REPORTED_ENDPOINT: inhibition at 1 µM (%)

// solved cases for inhibition at 1 µM follow
> print(dat)
                                   molecule   reported.endpoint  number
1  CC(C)(C)OC(=O)[C@H](Cc1ccc(OCc2ccccc2)cc1)NC(=O)[C@H](Cc1ccccc1)NC(=O)N1CCCCCC1  inhibition at 1 µM      44
2  CC(C)C[C@H](NC(=O)N1CCCCCC1)C(=O)N[C@@H](Cc1ccc(OCc2cccnc2)cc1)C(=O)OC(C)(C)C  inhibition at 1 µM      28
3  CC(C)C[C@H](NC(=S)NC1CCCCC1)C(=O)N[C@@H](Cc1ccc(OCc2ccccc2)cc1)C(=O)OC(C)(C)C  inhibition at 1 µM      42
4  CC(C)C[C@H](NC(=O)N1CCCCCC1)C(=O)N[C@@H](Cc1ccc(OCc2ccccc2)cc1)C(=O)NC(C)(C)C  inhibition at 1 µM      55
5  CC(C)CC(NC(=O)N1CCCCCC1)C(=O)NC(Cc1ccc(OCc2ccccc2)cc1)C(=O)NCC(O)CN (stereo not shown)  inhibition at 1 µM       6

A = CC(C)C[C@H](NC(=O)N1CCCCCC1)C(=O)N[C@H](Cc1ccc(OCc2ccccc2)cc1)C(=O)OC(C)(C)C
B = CC(C)C[C@H](NC(=O)N1CCCCCC1)C(=O)N[C@@H](Cc1ccc(CCc2ccccn2)cc1)C(=O)NC(C)(C)C
In the pair A and B , the larger recorded inhibition at 1 µM belongs to which? Lab note: record the label of whichever item you select. A

1 = CC(C)C[C@H](NC(=O)N[C@H](C)c1ccccc1)C(=O)N[C@@H](Cc1ccc(OCc2ccccc2)cc1)C(=O)OC(C)(C)C
2 = CC(C)C[C@H](NC(=O)N1CCCCCC1)C(=O)N[C@@H](Cc1ccc(CCC2CCCCC2)cc1)C(=O)NC(C)(C)C
In the pair 1 and 2 , the larger recorded inhibition at 1 µM belongs to which? Lab note: record the label of whichever item you select. 2
(2: 51%, 1: 33%)

----------
target: N-type Ca2+ channels in IMR-32 cells (Homo sapiens, UniProt Q00975); construct: host or cells: IMR-32 cells, differentiated with dibutyryl cAMP and bromodeoxyuridine; assay: Inhibition of N-type calcium flux in IMR-32 cells (Indo-1 fluorescence, nitrendipine present); type: cell-based; conditions: IMR-32
REPORTED_ENDPOINT: inhibition at 10 µM (%)

> print(dat)
                                   compound  measure.unit  number
1  CC(C)(C)OC(=O)[C@@H](Cc1ccc(OCc2ccccc2)cc1)NC(=O)[C@H](Cc1c[nH]c2ccccc12)NC(=O)N1CCCCCC1             %      85
2  Cc1ccc(COc2ccc(C[C@H](NC(=O)[C@H](Cc3ccccc3)NC(=O)N3CCCCCC3)C(=O)OC(C)(C)C)cc2)cc1             %      91
3  CC(C)CC(NC(=O)N1CCCCCC1)C(=O)NC(Cc1ccc(OCc2ccccc2)cc1)C(=O)NC(C)CN(C)C (stereo not drawn)             %      81

a = CC(C)(C)OC(=O)[C@@H](Cc1ccc(OCc2ccccc2)cc1)NC(=O)[C@H](Cc1ccccc1)NC(=O)N1CCCCCC1
b = CC(C)C[C@H](NC(=O)N1CCCCCC1)C(=O)N[C@@H](Cc1ccc(OCc2ccccc2)cc1)C(=O)Nc1ccc(Oc2ccccc2)cc1
c = CC(C)CC(NC(=O)N1CCCCCC1)C(=O)NC(Cc1ccc(OCc2ccccc2)cc1)C(=O)N1CCCC(O)C1 (stereo not drawn)
Rank items: key inhibition at 10 µM, increasing. API: response body holds the labels in the requested order. b, c, a
(b: 33%, c: 67%, a: 97%)
